- assay.system: Neu5Ac(a2-3)Gal(b1-4)GlcNAc(b1-3)Gal(b1-4)GlcNAc(b1-3)[Neu5Ac(a2-3)Gal(b1-4)GlcNAc(b1-3)Gal(b1-4)GlcNAc(b1-6)]GalNAc
- run.description: glycan array binding signal (z-score within array); higher = stronger binding
- test.conditions: glycan notation: IUPAC condensed, linker removed
Many of the other results were omitted from the sample, so the strongest signals are more common in it than they were.
outcome.measure: glycan array binding signal (z-score)

Query: Would you kindly share the measured glycan array binding signal (z-score) for BC2LB (Burholderia cenocepacia), B4EH85_BURCJ (protein) MGSSHHHHHHSSGENLYFQGHMSQPFTHDDLYALLQLAGNDATAVQANGDQAVLDRMRQFMTAQLVEKLPQYDVFVDIATIPYSFDVGSWQNKVKTDAAGEVVACTVTWAGAPGVLPGAAAKFGVGAVVNYFSKATPH ?
Response: -0.203
